Data provenance: PubChem BioAssay AID2060485

In this section we review reported viability, T/C values for a set of molecules.
System: A375 multi-cell spheroids with HUVEC/MSC, viability
Assay: Anticancer human tumor A375 cell line growth inhibition [GQUAD];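 further: spheroids exposed to compounds for seven days before readout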
Conditions: second compound 1 µM; first compound 0.0316 µM; hits give low values
All answers are understood in %, so give the number only.

Use the examples below as a reference point.
- MOLECULE: "CC1COCCN1c1cc(-c2ccnn2C)c2ccnc(-c3ccn[nH]3)c2n1 (stereo unspecified) + Cc1[nH]c2ccc(F)cc2c1-c1nc2c3cccnc3c3ncccc3c2[nH]1"
  ASSAYED TARGET: "A375 multi-cell spheroids with HUVEC/MSC, viability"
  viability, T/C / %: 97.7
- MOLECULE: "C=CCn1c(=O)c2cnc(Nc3ccc(N4CCN(C)CC4)cc3)nc2n1-c1cccc(C(C)(C)O)n1 + Cc1[nH]c2ccc(F)cc2c1-c1nc2c3cccnc3c3ncccc3c2[nH]1"
  ASSAYED TARGET: "A375 multi-cell spheroids with HUVEC/MSC, viability"
  viability, T/C / %: 101
- MOLECULE: "CC1COCCN1c1cc(C2(S(C)(=N)=O)CC2)nc(-c2ccnc3[nH]ccc23)n1 (stereo unspecified) + CN(C)c1ccc(Nc2c3ccc(NC(=O)CCN4CCCC4)cc3nc3cc(NC(=O)CCN4CCCC4)ccc23)cc1"
  ASSAYED TARGET: "A375 multi-cell spheroids with HUVEC/MSC, viability"
  viability, T/C / %: 106

# input Lab note: need viability, T/C for CC(C)n1c(=O)n(C)c2cnc3cc(F)c(-c4ccc(OCCCN5CCCCC5)nc4)cc3c21 + Cc1[nH]c2ccc(F)cc2c1-c1nc2c3cccnc3c3ncccc3c2[nH]1 on A375 multi-cell spheroids with HUVEC/MSC, viability, anyone have it?
# output 89.9

# input How about this molecule: O=C(NO)c1cnc(N2CCN(S(=O)(=O)c3ccc4ccccc4c3)CC2)nc1 + Cc1cnc(CNC(=O)c2c(=O)c3ccc(N4CCCN(C)CC4)nc3n3c2sc2ccccc23)cn1
# output 44.6

# input How about this molecule: CC(C)(O)C1CCC(Nc2ccc3ncc(-c4cccc(C(F)(F)F)c4)n3n2)CC1 (stereo unspecified) + CN(C)c1ccc(Nc2c3ccc(NC(=O)CCN4CCCC4)cc3nc3cc(NC(=O)CCN4CCCC4)ccc23)cc1
# output 96.7

###

System: A375 multi-cell spheroids with HUVEC/MSC, viability
Test: Anticancer human tumor A375 cell line growth inhibition [GQUAD];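 further: spheroids exposed to compounds for seven days before readout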
Conditions: second compound 0.0316 µM; first compound 0.0316 µM; hits give low values
RECORDED METRIC: viability, T/C (%)
All answers are understood in %, so give the number only.

Use the examples below as a reference point.
- MOLECULE: "CC(C)n1c(=O)n(C)c2cnc3cc(F)c(-c4ccc(OCCCN5CCCCC5)nc4)cc3c21 + CN(C)c1ccc(Nc2c3ccc(NC(=O)CCN4CCCC4)cc3nc3cc(NC(=O)CCN4CCCC4)ccc23)cc1"
  viability, T/C (%): 109
- MOLECULE: "CC1COCCN1c1cc(C2(O)CC3CCC(C2)O3)c2cnn(-c3ccn[nH]3)c2n1 (stereo unspecified) + Cc1cnc(CNC(=O)c2c(=O)c3ccc(N4CCCN(C)CC4)nc3n3c2sc2ccccc23)cn1"
  viability, T/C (%): 86.1
- MOLECULE: "Cn1ncnc1[C@H]1c2n[nH]c(=O)c3cc(F)cc(c23)N[C@@H]1c1ccc(F)cc1 + CN(C)c1ccc(Nc2c3ccc(NC(=O)CCN4CCCC4)cc3nc3cc(NC(=O)CCN4CCCC4)ccc23)cc1"
  viability, T/C (%): 104

Now let's try a different one.
# input Lab note: need viability, T/C for Nc1ccn(C2OC(CO)C(O)C2(F)F)c(=O)n1 (stereo unspecified) + Cc1cnc(CNC(=O)c2c(=O)c3ccc(N4CCCN(C)CC4)nc3n3c2sc2ccccc23)cn1 on A375 multi-cell spheroids with HUVEC/MSC, viability, anyone have it?
# output 22.9
